Measured values drawn from patent US20220033460A1 for this set.

test system: DRB01*07:01
particulars: chains peptide; modification not given
measured attribute: IC50 (µM)
Answers are plain numbers, in µM.

query: Can you look up the measured IC50 of GAVILRGHLRIAGHHLGR [SEQ ID NO 312] for me?
result: 14.5
